TESTED_TARGET: Adenosine A₂ receptor (Rattus norvegicus, UniProt P30543)
Sequence (P30543 whole entry): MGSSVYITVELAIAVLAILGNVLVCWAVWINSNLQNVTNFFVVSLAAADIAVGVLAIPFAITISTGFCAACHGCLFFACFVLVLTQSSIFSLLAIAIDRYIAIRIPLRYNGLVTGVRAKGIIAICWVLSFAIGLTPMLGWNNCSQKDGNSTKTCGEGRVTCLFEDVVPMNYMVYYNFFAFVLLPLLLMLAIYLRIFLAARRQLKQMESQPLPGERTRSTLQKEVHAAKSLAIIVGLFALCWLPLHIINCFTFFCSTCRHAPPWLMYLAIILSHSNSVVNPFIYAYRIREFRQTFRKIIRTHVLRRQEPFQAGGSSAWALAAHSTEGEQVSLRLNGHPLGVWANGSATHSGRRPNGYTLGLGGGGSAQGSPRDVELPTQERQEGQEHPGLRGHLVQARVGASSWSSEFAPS
PROCEDURE_SUMMARY: Adenosine A2 receptor binding test (3H-NECA binding)
CONDITION_SET: read-out: A2 Receptor Inhibition (%) 10^-5 M
RECORDED_ENDPOINT: inhibition at 10 µM (%)
# value in %; strip the unit string

Examples with their reported inhibition at 10 µM follow.
CCCn1c(=O)c2c(nc(/C=C/c3ccc(OC)cc3)n2C)n(CCC)c1=O: 95
C=CCn1c(=O)c2c(nc(/C=C/c3cc(OC)c(OC)c(OC)c3)n2C)n(CC=C)c1=O: 93
CCCn1c(=O)c2c(nc(/C=C/c3ccc(OC)c(OC)c3)n2C)n(CCC)c1=O: 96
CCCn1c(=O)c2c(nc(/C=C/c3cc(OC)c(OC)c(OC)c3)n2C)n(CCC)c1=O: 94

Next compound, please.
The compound listed as "CCCn1c(=O)c2c(nc(/C=C/c3ccccc3)n2C)n(CCC)c1=O" has a reported inhibition at 10 µM of 95
